Biological target: T1, rHuman CD44/Fc Chimera, CF (R&D Systems Cat#3660-CD) (human, UniProt P16070 21-220)
T1 construct: Bought protein; Fc part of the bought chimera not given
Assay: ECL multispot (MSD) assay; antigen spotted on plate, Fab in solution;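 note: purified Fab incubated 1 hour at 20 °C in 1% BSA TBST on antigen-coated wells, detected with TAG antibody, ECL read on Sector Imager 2400, compared to each well's blank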
measured parameter: ECL signal (ECL signal)
The response must be a number in ECL signal with no trailing unit.

// below: answered binders
INSERT INTO measurements (binder, value) VALUES
  ('Fab VH1-46_IGHD6-6*01_IGHJ1*01 S102A/S103P/S104F (APF) & L6_IGKJ1*01 S30W (Fab, V domains shown, Tested as Fab made in E. coli; The heavy chain vector (Plasmid A) adds CH1 with His and Flag tags, the kappa vector (Plasmid C) adds CL kappa; also called APF / S30W) VH: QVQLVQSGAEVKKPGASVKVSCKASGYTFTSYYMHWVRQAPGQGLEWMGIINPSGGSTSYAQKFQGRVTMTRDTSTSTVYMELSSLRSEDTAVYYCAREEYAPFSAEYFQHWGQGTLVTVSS VL: EIVLTQSPATLSLSPGERATLSCRASQSVWSYLAWYQQKPGQAPRLLIYDASNRATGIPARFSGSGSGTDFTLTISSLEPEDFAVYYCQQRSNWPPWTFGQGTKVEIKR', 186),
  ('Fab VH1-46_IGHD6-6*01_IGHJ1*01 S102A/S103P/S104F (APF) & L6_IGKJ1*01 S30L (Fab, V domains shown, Tested as Fab made in E. coli; The heavy chain vector (Plasmid A) adds CH1 with His and Flag tags, the kappa vector (Plasmid C) adds CL kappa; also called APF / S30L) VH: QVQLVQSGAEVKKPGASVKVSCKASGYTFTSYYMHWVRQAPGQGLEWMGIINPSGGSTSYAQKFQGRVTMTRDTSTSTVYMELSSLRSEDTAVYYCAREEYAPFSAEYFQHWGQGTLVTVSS VL: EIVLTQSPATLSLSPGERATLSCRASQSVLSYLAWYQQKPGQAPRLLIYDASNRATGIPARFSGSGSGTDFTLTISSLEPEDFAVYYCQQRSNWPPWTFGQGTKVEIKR', 240);

Next:
What value of ECL signal has been recorded for this entry: Fab VH1-46_IGHD6-6*01_IGHJ1*01 S102A/S103P/S104F (APF) & L6_IGKJ1*01 S30R (Fab, V domains shown, Tested as Fab made in E. coli; The heavy chain vector (Plasmid A) adds CH1 with His and Flag tags, the kappa vector (Plasmid C) adds CL kappa; also called APF / S30R) VH: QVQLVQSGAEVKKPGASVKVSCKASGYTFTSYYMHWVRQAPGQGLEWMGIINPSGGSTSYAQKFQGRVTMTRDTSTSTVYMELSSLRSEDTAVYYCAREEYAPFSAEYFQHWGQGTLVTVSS VL: EIVLTQSPATLSLSPGERATLSCRASQSVRSYLAWYQQKPGQAPRLLIYDASNRATGIPARFSGSGSGTDFTLTISSLEPEDFAVYYCQQRSNWPPWTFGQGTKVEIKR 89
